# System: MCF-12A
# test: MTT assay, non-tumorigenic breast epithelial cell line
# Type: cell-based, human
# experimental context: Homo sapiens, MCF-12A; MTT, 72 h, non-tumorigenic cells; read-out: IC50 (Mean ± SD), MCF-12A
test readout: log10 of IC50 (log10 of the value in µM)

{"columns": ["compound", "test system", "result"],
 "data": [
  ["CC1CCC2(C(=O)OCCOC(=O)CCCCC3SCC4NC(=O)NC43)CCC3(C)C(=CCC4C5(C)CCC(O)C(C)(C)C5CCC43C)C2C1C (centres unmarked)", "MCF-12A", 2.80],
  ["CC1CCC2(C(=O)OCCCCCCOC(=O)CCCCC3SCC4NC(=O)NC43)CCC3(C)C(=CCC4C5(C)CCC(O)C(C)(C)C5CCC43C)C2C1C (centres unmarked)", "MCF-12A", 3.58],
  ["C[C@H]1[C@H](C)CC[C@]2(C(=O)O)CC[C@]3(C)C(=CC[C@@H]4[C@@]5(C)CC[C@H](O)C(C)(C)[C@@H]5CC[C@]43C)[C@H]12", "MCF-12A", 1.75],
  ["CC1CCC2(C(=O)OCCCOC(=O)CCCCC3SCC4NC(=O)NC43)CCC3(C)C(=CCC4C5(C)CCC(O)C(C)(C)C5CCC43C)C2C1C (centres unmarked)", "MCF-12A", 1.87],
  ["CC1CCC2(C(=O)OCCCCOC(=O)CCCCC3SCC4NC(=O)NC43)CCC3(C)C(=CCC4C5(C)CCC(O)C(C)(C)C5CCC43C)C2C1C (centres unmarked)", "MCF-12A", 1.92]
]}

* * *

# Tested on: 5637 cells
# test: MTT antiproliferative assay
# Assay type: cell-based, human
# experimental context: Homo sapiens, 72 h, MTT, 72 h; read-out: IC50 (Mean ± SD), 5637
A collection of molecules and their measured IC50
test readout: IC50 (µM)

{"columns": ["molecule", "test readout", "limit qualifier", "result"],
 "data": [
  ["CC1CCC2(C(=O)OCCOC(=O)CCCCC3SCC4NC(=O)NC43)CCC3(C)C(=CCC4C5(C)CCC(O)C(C)(C)C5CCC43C)C2C1C (centres unmarked)", "IC50", "=", 39.3],
  ["CC1CCC2(C(=O)OCCCCOC(=O)CCCCC3SCC4NC(=O)NC43)CCC3(C)C(=CCC4C5(C)CCC(O)C(C)(C)C5CCC43C)C2C1C (centres unmarked)", "IC50", "=", 11],
  ["CC1CCC2(C(=O)OCCCCCCOC(=O)CCCCC3SCC4NC(=O)NC43)CCC3(C)C(=CCC4C5(C)CCC(O)C(C)(C)C5CCC43C)C2C1C (centres unmarked)", "IC50", ">", 10000],
  ["C[C@H]1[C@H](C)CC[C@]2(C(=O)O)CC[C@]3(C)C(=CC[C@@H]4[C@@]5(C)CC[C@H](O)C(C)(C)[C@@H]5CC[C@]43C)[C@H]12", "IC50", "=", 13.4],
  ["CC1CCC2(C(=O)OCCCOC(=O)CCCCC3SCC4NC(=O)NC43)CCC3(C)C(=CCC4C5(C)CCC(O)C(C)(C)C5CCC43C)C2C1C (centres unmarked)", "IC50", "≥", 10000]
]}

* * *

# System: T24 cells
# test: MTT antiproliferative assay
# Type: cell-based, human
# experimental context: IC50 MCF-12A / IC50 T24
A collection of compounds and their measured SI (selectivity index), T24

{"columns": ["compound", "SI (selectivity index), T24"],
 "data": [
  ["C[C@H]1[C@H](C)CC[C@]2(C(=O)O)CC[C@]3(C)C(=CC[C@@H]4[C@@]5(C)CC[C@H](O)C(C)(C)[C@@H]5CC[C@]43C)[C@H]12 [UA, Ursolic acid]", 3.21],
  ["CC1CCC2(C(=O)OCCCCCCOC(=O)CCCCC3SCC4NC(=O)NC43)CCC3(C)C(=CCC4C5(C)CCC(O)C(C)(C)C5CCC43C)C2C1C (centres unmarked) [Compound 5d]", 6.57],
  ["CC1CCC2(C(=O)OCCOC(=O)CCCCC3SCC4NC(=O)NC43)CCC3(C)C(=CCC4C5(C)CCC(O)C(C)(C)C5CCC43C)C2C1C (centres unmarked) [Compound 5a]", 42.96],
  ["CC1CCC2(C(=O)OCCCCOC(=O)CCCCC3SCC4NC(=O)NC43)CCC3(C)C(=CCC4C5(C)CCC(O)C(C)(C)C5CCC43C)C2C1C (centres unmarked) [Compound 5c]", 5.85],
  ["CC1CCC2(C(=O)OCCCOC(=O)CCCCC3SCC4NC(=O)NC43)CCC3(C)C(=CCC4C5(C)CCC(O)C(C)(C)C5CCC43C)C2C1C (centres unmarked) [Compound 5b]", 0.68]
]}
